Tested on: Escherichia coli
ASSAY PROTOCOL: Antimicrobial activity against Escherichia coli ATCC 25922 after 24 hr by broth dilution method
Assay type: functional
CONDITION DETAILS: ATCC 25922, 24 h
OBSERVED PROPERTY: MIC50 (µg/mL)
Numbers only; they are read as µg/mL.

Q: Which MIC50 is listed for CC1(C)S[C@@H]2[C@H](NC(=O)[C@H](N)c3ccc(O)cc3)C(=O)N2[C@H]1C(=O)O ?
Result: 1.6

Q: Which MIC50 is listed for CCCN(CCC)Cc1cccc(/C=N\NC(=O)c2ccncc2)c1OCC ?
Result: 6.4

Q: Which MIC50 is listed for CCOc1c(/C=N\NC(=O)c2ccncc2)cccc1CN(CC)CC ?
Result: 12.8

Q: Which MIC50 is listed for CCOc1c(/C=N\NC(=O)c2ccncc2)cccc1CN1CCNCC1 ?
Result: 3.2

Q: Which MIC50 is listed for CCOc1c(/C=N\NC(=O)c2ccncc2)cccc1CN1CCCCC1 ?
Result: 6.4

Source listed as ChEMBL document CHEMBL3046083.
